Test system: NCI-H2023
Assay: relative viability (nuclei count vs DMSO), 5 days (fraction); higher = more cells survive
Conditions: first compound 1 µM
Examples of compounds with documented relative viability follow.
Form field (numeric): enter value without unit.

Examples with their reported relative viability follow.
{"columns": ["Compound", "Tested On", "relative viability"],
 "data": [
  ["O=c1cc(N2CCOCC2)oc2c(-c3cccc4c3sc3ccccc34)cccc12 + CS(=O)(=O)N1CCN(Cc2cc3nc(-c4cccc5[nH]ncc45)nc(N4CCOCC4)c3s2)CC1 [Pictilisib] (partner 1 µM)", "NCI-H2023", 0.245],
  ["CCN(CC)CCCCNc1ncc2cc(-c3cc(OC)cc(OC)c3)c(NC(=O)NC(C)(C)C)nc2n1 + C[C@]1(O)C[C@@H](c2nc(-c3ccc4ccc(-c5ccccc5)nc4c3)c3c(N)nccn32)C1 [Linsitinib] (partner 1 µM)", "NCI-H2023", 0.685],
  ["O=c1cc(N2CCOCC2)oc2c(-c3cccc4c3sc3ccccc34)cccc12 + CC(=O)c1c(C)c2cnc(Nc3ccc(N4CCNCC4)cn3)nc2n(C2CCCC2)c1=O [Palbociclib] (partner 0.5 µM)", "NCI-H2023", 0.346],
  ["O=c1cc(N2CCOCC2)oc2c(-c3cccc4c3sc3ccccc34)cccc12 + N=C(N)NC(=N)NCCc1ccccc1 [Phenformin] (partner 250 µM)", "NCI-H2023", 0.385],
  ["CCN(CC)CCCCNc1ncc2cc(-c3cc(OC)cc(OC)c3)c(NC(=O)NC(C)(C)C)nc2n1 + O=C(CCCCCCC(=O)Nc1ccccc1)NO [Vorinostat] (partner 1 µM)", "NCI-H2023", 0.567]
]}

Task: Checklist item: relative viability tested on NCI-H2023, entry O=c1cc(N2CCOCC2)oc2c(-c3cccc4c3sc3ccccc34)cccc12 + Nc1nc2[nH]cc(CCc3ccc(C(=O)N[C@@H](CCC(=O)O)C(=O)O)cc3)c2c(=O)[nH]1 [Pemetrexed] (partner 0.2 µM) , value?
Result: 0.161

Task: Recorded relative viability for O=c1cc(N2CCOCC2)oc2c(-c3cccc4c3sc3ccccc34)cccc12 + CC(C)C[C@H](NC(=O)[C@H](Cc1ccccc1)NC(=O)c1cnccn1)B(O)O [Bortezomib] (partner 0.002 µM) with NCI-H2023, please?
Result: 0.907

Values compiled from the supplement of paper PMC10307832.
